The following compounds are listed with their measured inhibition values.
Test system: Crimean-Congo hemorrhagic fever virus L polyprotein viral ovarian tumor (vOTU) protease domain
Assay: CCHFV vOTU protease inhibitors, primary screen, biochemical, Pep-AMC substrate, fluorescence (AID 651958); further: 0% = vehicle wells with enzyme and 100% = no enzyme wells
Settings: at 11.5 µM, active compounds read high
The whole screen tested about 370,000 compounds, of which about 2,000 (0.54%) were called active. The list comes from a sample in which actives are over-represented; it also holds close analogues and randomly drawn compounds.

[
  {
    "compound": "CN(C)C(=O)c1ccc2c(c1)C1C3CCC(C3)C1C(c1ccccc1)N2 (stereo unspecified)",
    "unit.abbreviation": "%",
    "inhibition": 5.37
  },
  {
    "compound": "O=C1Cc2ccccc2Sc2ccc(Cl)cc21",
    "unit.abbreviation": "%",
    "inhibition": 7.8
  },
  {
    "compound": "Cc1ccc(CN2CCCCC(NC(=O)C3CCCCC3)C2=O)cc1 (stereo unspecified)",
    "unit.abbreviation": "%",
    "inhibition": 6.33
  },
  {
    "compound": "CCC(C(=O)NCc1cccnc1)n1nc(C)c2sc3ccccc3c2c1=O (stereo unspecified)",
    "unit.abbreviation": "%",
    "inhibition": -2
  },
  {
    "compound": "CN(CC(=O)NCC(c1ccccc1)N1CCCC1)S(=O)(=O)c1ccc(Cl)cc1 (stereo unspecified)",
    "unit.abbreviation": "%",
    "inhibition": -5.38
  },
  {
    "compound": "CCN(CC)P(=O)(Oc1cccc(C)c1)N(CC)CC",
    "unit.abbreviation": "%",
    "inhibition": 32.4
  },
  {
    "compound": "CCOCCc1c(O)[nH]c(=S)[nH]c1=O",
    "unit.abbreviation": "%",
    "inhibition": 5.12
  },
  {
    "compound": "CC(=O)N1Cc2cc(C(=O)NCc3cccc(F)c3)nc(-c3cccc(C4=CCCCC4)c3)c2[C@H]1CCO",
    "unit.abbreviation": "%",
    "inhibition": 9.9
  },
  {
    "compound": "CC(=O)N=c1ncn(CC(COC(C)=O)OC(C)=O)c2nc[nH]c12 (stereo unspecified)",
    "unit.abbreviation": "%",
    "inhibition": 6.99
  },
  {
    "compound": "COC(=O)c1ccccc1N=Nc1c(C)[nH][nH]c1=O",
    "unit.abbreviation": "%",
    "inhibition": -9.29
  },
  {
    "compound": "Cc1noc(C)c1S(=O)(=O)N(C)C[C@H]1OCCCC[C@@H](C)Oc2ccc(NC(=O)CCCN(C)C)cc2C(=O)N([C@H](C)CO)C[C@@H]1C",
    "unit.abbreviation": "%",
    "inhibition": -8.1
  },
  {
    "compound": "COCCn1nnnc1C(c1cc2ccc(OC)cc2[nH]c1=O)N1CCc2ccccc2C1 (stereo unspecified)",
    "unit.abbreviation": "%",
    "inhibition": 103
  },
  {
    "compound": "O=C(NC1CC1)C1=C[C@H](c2coc3ccccc3c2=O)C[C@H](OCCCCO)O1",
    "unit.abbreviation": "%",
    "inhibition": -2.05
  },
  {
    "compound": "COc1cccc(NC(=O)C(=O)c2cn(CC(=O)N3CCOCC3)c3ccccc23)c1",
    "unit.abbreviation": "%",
    "inhibition": 40.2
  },
  {
    "compound": "COc1ccc(C(CNC(=O)COc2ccccc2OC)N2CCCCC2)cc1 (stereo unspecified)",
    "unit.abbreviation": "%",
    "inhibition": 0.37
  },
  {
    "compound": "Cc1coc2c(O)cc3c(c12)OC1(N2CCCCC2)C(=O)NCCCC31 (stereo unspecified)",
    "unit.abbreviation": "%",
    "inhibition": 51.9
  },
  {
    "compound": "C#CCO[C@@H]1C[C@H](n2cnc3c(=O)[nH]c(NC(=O)C(C)C)nc32)O[C@@H]1CO",
    "unit.abbreviation": "%",
    "inhibition": -9.39
  },
  {
    "compound": "S=C(NCCc1ccccc1)N1CCn2cccc2C1c1ccncc1 (stereo unspecified)",
    "unit.abbreviation": "%",
    "inhibition": 20.5
  },
  {
    "compound": "Cc1cc(C)cc(NC(=S)NC2CC3CCCC(C2)N3Cc2cccs2)c1 (stereo unspecified)",
    "unit.abbreviation": "%",
    "inhibition": -9.42
  },
  {
    "compound": "CCc1ccc(OCC(=O)NCC(c2ccc(Cl)cc2)N2CCCCC2)cc1 (stereo unspecified)",
    "unit.abbreviation": "%",
    "inhibition": 31
  },
  {
    "compound": "CCOC(=O)[C@H]1[C@H]2COc3ccccc3[C@@H]2N2C(=O)CN(Cc3ccccc3)C(=O)[C@@]12C",
    "unit.abbreviation": "%",
    "inhibition": -6.74
  }
]
